Taken from patent US10695348B2.

biological target: human TRPA1 (Homo sapiens, UniProt O75762); construct: expressed in transfected cells; host or cells: CHO cells; experiment: FLIPR Tetra calcium influx assay, CHO cells expressing TRPA1, cinnamaldehyde agonist (hTRPA1 CHO Ca2+ AUC EVO); assay type: cell-based; details: CHO cells expressing human TRPA1; 75 uM cinnamaldehyde; Hill coefficient fixed to 1.5; read-out: hTRPA1 IC50 (hTRPA1 CHO Ca2+ AUC EVO (IC50))
Sequence (O75762 whole entry): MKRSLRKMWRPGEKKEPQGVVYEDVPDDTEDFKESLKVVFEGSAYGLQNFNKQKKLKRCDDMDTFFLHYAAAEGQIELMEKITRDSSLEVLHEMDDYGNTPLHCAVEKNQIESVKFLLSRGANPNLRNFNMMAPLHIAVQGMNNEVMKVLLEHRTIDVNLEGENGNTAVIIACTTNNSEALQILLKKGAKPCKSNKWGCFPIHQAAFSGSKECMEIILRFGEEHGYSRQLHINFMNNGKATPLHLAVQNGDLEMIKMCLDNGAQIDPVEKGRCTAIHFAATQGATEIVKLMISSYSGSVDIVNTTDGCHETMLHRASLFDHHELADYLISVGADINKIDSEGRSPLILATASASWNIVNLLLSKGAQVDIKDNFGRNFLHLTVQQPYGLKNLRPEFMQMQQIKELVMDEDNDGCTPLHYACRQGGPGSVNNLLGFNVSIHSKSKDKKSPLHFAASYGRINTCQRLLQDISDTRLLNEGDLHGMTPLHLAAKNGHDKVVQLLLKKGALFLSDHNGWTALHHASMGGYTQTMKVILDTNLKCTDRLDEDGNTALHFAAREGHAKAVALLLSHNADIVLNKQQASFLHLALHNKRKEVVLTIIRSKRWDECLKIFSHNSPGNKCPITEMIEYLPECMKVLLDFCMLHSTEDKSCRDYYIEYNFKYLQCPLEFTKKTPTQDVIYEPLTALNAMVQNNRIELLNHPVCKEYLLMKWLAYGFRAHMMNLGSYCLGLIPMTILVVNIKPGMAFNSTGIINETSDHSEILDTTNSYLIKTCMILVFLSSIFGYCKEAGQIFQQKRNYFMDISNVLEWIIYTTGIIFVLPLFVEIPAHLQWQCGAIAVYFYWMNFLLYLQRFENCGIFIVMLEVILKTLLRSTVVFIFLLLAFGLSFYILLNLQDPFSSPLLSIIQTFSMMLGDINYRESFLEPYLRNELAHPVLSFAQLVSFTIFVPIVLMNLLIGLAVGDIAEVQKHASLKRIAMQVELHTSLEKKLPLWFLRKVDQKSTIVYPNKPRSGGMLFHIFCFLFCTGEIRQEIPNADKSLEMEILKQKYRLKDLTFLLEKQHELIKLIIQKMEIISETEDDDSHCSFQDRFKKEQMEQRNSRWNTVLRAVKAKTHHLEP
parameter: pIC50
The quantity pIC50 is defined as the negative base-10 logarithm of the molar concentration.

C[C@H]1[C@H](F)C[C@@H](C(=O)NCc2cc(-c3cnc(C(F)(F)F)nc3)ncc2OC(F)(F)F)N1S(=O)(=O)c1ccc(F)cn1 [[11]]; 8.17
C[C@H]1[C@H](F)C[C@@H](C(=O)NCc2cc(-c3cnc(C(F)(F)F)nc3)ncc2C#N)N1S(=O)(=O)c1ccc(F)cn1 [[13]]; 7.05

Now examine the next entry.
Request: Data request, read-out pIC50, for C[C@H]1[C@H](F)C[C@@H](C(=O)NCc2cc(-c3cnc(C(F)(F)F)nc3)ncc2C(F)(F)F)N1S(=O)(=O)c1ccc(C#N)cn1 [[8]]
Result: 7.13

----------
test: Aqueous solubility (K. Sol); type: physicochemical; conditions: aqueous medium (not further specified), kinetic from dmso stock; read-out: K. Sol (estimated aqueous solubility)
solubility listing for selected molecules.
Kindly report the value followed by its unit.

Request: # get_value(readout='solubility', item= C[C@H]1[C@H](F)C[C@@H](C(=O)NCc2cc(-c3cnc(C(F)(F)F)nc3)ncc2F)N1S(=O)(=O)c1ccc(F)cn1 (single isomer, unassigned) [Pyridyl Sulfonamide 2] )
Result: 4 µM

Request: Looking for the measured solubility of C[C@H]1[C@H](F)C[C@@H](C(=O)NCc2cc(-c3cnc(C(F)(F)F)nc3)ncc2C(F)(F)F)N1S(=O)(=O)c1ccc(F)cn1 (single isomer, unassigned) [Pyridyl Sulfonamide 1] , can you help?
Result: 30 µM

----------
Reported pIC50 is given for each of the following compounds.
target: human TRPA1 (Homo sapiens, UniProt O75762); construct: expressed in transfected cells; host or cells: CHO cells; assay: FLIPR Tetra calcium influx assay, CHO cells expressing TRPA1, cinnamaldehyde agonist (hTRPA1 CHO Ca2+ AUC EVO); format: cell-based; details: CHO cells expressing human TRPA1; 75 uM cinnamaldehyde; Hill coefficient fixed to 1.5; read-out: hTRPA1 IC50 (hTRPA1 CHO Ca2+ AUC EVO (IC50))
// scale note: pIC50 = -log10(conc_M); give the bare number

Example results:
C[C@H]1[C@H](F)C[C@@H](C(=O)NCc2cc(-c3cnc(C(F)(F)F)nc3)ncc2Cl)N1S(=O)(=O)c1ccc(F)cn1 [[9]]; 7.78
C[C@H]1[C@H](F)C[C@@H](C(=O)NCc2cc(-c3cnc(C(F)(F)F)nc3)cnc2C(F)F)N1S(=O)(=O)c1ccc(F)cn1 [[14]]; 7.12
C[C@H]1[C@H](F)C[C@@H](C(=O)NCc2cc(-c3cnc(C(F)(F)F)nc3)ncc2C(F)(F)F)N1S(=O)(=O)c1cc2c(Cl)nccc2o1 [[4]]; 9.20

Request: Fill in the blank: the reported pIC50 of C[C@H]1[C@H](F)C[C@@H](C(=O)NCc2cc(-c3cnc(C(F)(F)F)nc3)ncc2C(F)(F)F)N1S(=O)(=O)c1ncccc1F [[7]] is ____.
Result: 6.20

Request: Look up pIC50: C[C@H]1[C@H](F)C[C@@H](C(=O)NCc2cc(-c3cnc(C(F)(F)F)nc3)ncc2C(F)(F)F)N1S(=O)(=O)c1cncc(Cl)c1 [[3]]
Result: 8.51

Request: What measured pIC50 goes with C[C@H]1[C@H](F)C[C@@H](C(=O)NCc2cc(-c3cnc(C(F)(F)F)nc3)ncc2F)N1S(=O)(=O)c1ccc(F)cn1 [[12]] ?
Result: 6.99
